pest or weed control at 70 g/ha values for the molecules below.
- System: VERPE: bird's-eye speedwell (veronica persica)
- assay: Post-emergent Test III, herbicidal activity in wheat and barley
- Assay type: in vivo
- protocolConditions: Veronica persica, post-emergence, 504 h; 70 g ai/ha; 21 days after application; read-out: Visual Gorowth Reduction (%) 21 days After Application VERPE

| molecule | pest or weed control at 70 g/ha |
| --- | --- |
| COC(=O)c1nc(-c2ccc(Br)c(F)c2F)nc(N)c1OC [Compound 122] | 95 to 100% |
| COC(=O)c1nc(-c2ccc(Br)cc2F)c(F)c(N)c1Cl [Compound 52] | 95 to 100% |
| Nc1c(F)c(-c2ccc(I)c(F)c2)nc(C(=O)O)c1Cl [Compound 157] | 60 to 74% |
| COc1c(N)nc(-c2ccc(Br)c(F)c2F)nc1C(=O)O [Compound 8] | 95 to 100% |
| Nc1c(F)c(-c2ccc(Br)c(F)c2)nc(C(=O)O)c1Cl [Compound 21] | 0 to 29% |
| COc1c(N)nc(-c2ccc(I)cc2F)nc1C(=O)O [Compound 72] | 95 to 100% |

###

- Tested on: APESV: bentgrass (Apera spica-venti)
- assay: Post-emergent Test III, herbicidal activity in wheat and barley
- Assay type: in vivo
- protocolConditions: Apera spica-venti, post-emergence, 504 h; 70 g ai/ha; read-out: Visual Growth Reduction (%) 21 Days After Application APESV
pest or weed control at 70 g/ha values for the compounds below.

| compound | pest or weed control at 70 g/ha |
| --- | --- |
| Nc1c(F)c(-c2ccc(Cl)c(F)c2)nc(C(=O)O)c1Cl [Compound 217] | 85 to 94% |
| COC(=O)c1nc(-c2ccc(Cl)c(F)c2)c(F)c(N)c1Cl [Compound 216] | 85 to 94% |
| COC(=O)c1nc(-c2ccc(OC(F)F)cc2)c(F)c(N)c1Cl [Compound 85] | 0 to 29% |
| N#Cc1ccc(-c2nc(C(=O)O)c(Cl)c(N)c2F)cc1 [Compound 39] | 45 to 59% |

###

pest or weed control at 70 g/ha values for the molecules below.
- Tested on: Key Grass and Sedge Weeds as well as Grass Crops
- assay: Post-emergent Test II herbicidal activity (Table 6)
- Format: in vivo
- protocolConditions: post-emergence, 336 h, TRZSS (wheat, Triticum aestivum), application rate 70 g ai/ha, read-out: Visual Growth Reduction (%) 14 Days After Application, TRZSS
observedProperty: pest or weed control at 70 g/ha

| chemicalStructure | observedProperty | reported |
| --- | --- | --- |
| COC(=O)c1nc(-c2cc(F)c(C(F)F)cc2F)nc(N)c1OC | pest or weed control at 70 g/ha | 0 to 29% |
| Cc1cc(F)c(-c2cc(N)c(Cl)c(C(=O)O)n2)cc1F | pest or weed control at 70 g/ha | 0 to 29% |
| Nc1cc(-c2cc(F)c(C(F)F)cc2F)nc(C(=O)O)c1Cl | pest or weed control at 70 g/ha | 0 to 29% |
| COC(=O)c1nc(-c2cc(F)c(C#N)cc2F)nc(N)c1OC | pest or weed control at 70 g/ha | 0 to 29% |
| Nc1cc(-c2c(F)cc(I)c(F)c2F)nc(C(=O)O)c1Cl | pest or weed control at 70 g/ha | 30 to 44% |
| COC(=O)c1nc(-c2cc(F)c(C(F)(F)F)cc2F)nc(N)c1OC | pest or weed control at 70 g/ha | 30 to 44% |
| COC(=O)c1nc(-c2cc(F)c(C(F)(F)F)cc2F)c(F)c(N)c1Cl | pest or weed control at 70 g/ha | 60 to 74% |
| N#Cc1ccc(-c2nc(C(=O)O)c(Cl)c(N)c2F)c(F)c1 | pest or weed control at 70 g/ha | 0 to 29% |
| Nc1cc(-c2cc(F)c(OC(F)F)cc2F)nc(C(=O)O)c1Cl | pest or weed control at 70 g/ha | 0 to 29% |
| COc1c(N)nc(-c2cc(F)c(C)cc2F)nc1C(=O)O | pest or weed control at 70 g/ha | 0 to 29% |
| COC(=O)c1nc(-c2cc(F)c(C#N)cc2F)c(F)c(N)c1Cl | pest or weed control at 70 g/ha | 30 to 44% |
| COC(=O)c1nc(-c2cc(F)c(C(F)(F)F)cc2F)cc(N)c1Cl | pest or weed control at 70 g/ha | 75 to 84% |
| COC(=O)c1nc(-c2cc(F)c(C)cc2F)c(F)c(N)c1Cl | pest or weed control at 70 g/ha | 0 to 29% |
